# System: Plasmodium falciparum
# Method Description: GSK_TCMDC: Inhibition of Plasmodium falciparum Dd2 in whole red blood cells, using parasite LDH activity as an index of growth. Test compounds present at 2uM
# Type: functional
Attribute Measured: Inhibition (%)

{"Molecule": "COC(=O)c1ccc2[nH]cc(C3CCN(CCC4CCN(C(=O)/C=C/c5ccc(Cl)c(Cl)c5)CC4)CC3)c2c1", "Tested Target": "Plasmodium falciparum", "Attribute Measured": "Inhibition", "Uom": "%", "Recorded Number": 59}
{"Molecule": "Fc1ccc2[nH]c(-c3cccc(-c4ccc(CNCc5cnn(-c6ccccc6)n5)cc4)c3)nc2c1.O=C(O)C(F)(F)F", "Tested Target": "Plasmodium falciparum", "Attribute Measured": "Inhibition", "Uom": "%", "Recorded Number": 22}
{"Molecule": "CCOc1cc(N)c2nc3ccc([N+](=O)[O-])cc3cc2c1", "Tested Target": "Plasmodium falciparum", "Attribute Measured": "Inhibition", "Uom": "%", "Recorded Number": 78}
{"Molecule": "CN(C(=O)/C=C/c1cc(C(F)(F)F)ccc1F)C1CCN(CCCCCNC(=O)/C=C/c2ccc(Cl)c(Cl)c2)CC1", "Tested Target": "Plasmodium falciparum", "Attribute Measured": "Inhibition", "Uom": "%", "Recorded Number": 68}
{"Molecule": "Cc1nc(N)nc(N)c1-c1ccc(Cl)c(Cl)c1 [METOPRINE]", "Tested Target": "Plasmodium falciparum", "Attribute Measured": "Inhibition", "Uom": "%", "Recorded Number": 0}
{"Molecule": "O=C(NC(Nc1ccc([N+](=O)[O-])cc1)C(Cl)(Cl)Cl)c1ccc(Cl)cc1 (centres undefined)", "Tested Target": "Plasmodium falciparum", "Attribute Measured": "Inhibition", "Uom": "%", "Recorded Number": 94}
{"Molecule": "Cc1n[nH]c2ccc(-c3cc(OC[C@@H](N)Cc4ccccc4)cnc3-c3cc4ccccc4s3)cc12.O=C(O)C(F)(F)F", "Tested Target": "Plasmodium falciparum", "Attribute Measured": "Inhibition", "Uom": "%", "Recorded Number": 68}
{"Molecule": "N#Cc1cccc(-c2cnc(N)c(-c3nc4cc(S(N)(=O)=O)ccc4[nH]3)c2)c1", "Tested Target": "Plasmodium falciparum", "Attribute Measured": "Inhibition", "Uom": "%", "Recorded Number": 99}
{"Molecule": "Cn1cc(CN2CCCC(COC(c3ccccc3)c3ccccc3)C2)cn1 (centres undefined)", "Tested Target": "Plasmodium falciparum", "Attribute Measured": "Inhibition", "Uom": "%", "Recorded Number": 99}
